Kindly state viability at 48 h, 25 µM for each of the entries shown.
PROTOCOL_TEXT: in vitro
PROTOCOL_CONDITIONS: human, hek293t cells
# number only, unit % dropped from output

Q) Find the measured viability at 48 h, 25 µM of C=CC(=O)N(C)CC(=O)N1CCCCC1c1nc(C)no1 (centres unmarked) and report it.
A) 47.9

Q) Consider the compound `Cc1ccc(N(CCC#N)C(=O)CCl)cc1` and give its recorded viability at 48 h, 25 µM.
A) 1.24

Q) Return reported viability at 48 h, 25 µM. Input compound: `Cn1cc(C=C(C#N)C(=O)Nc2ccc(Oc3ccccc3)cc2)cn1`
A) 109

Q) Give the measured viability at 48 h, 25 µM for `O=C(CCl)NCCc1c(F)cccc1F`
A) 15.5

Q) Supply reported viability at 48 h, 25 µM belonging to this compound: `O=C(CCl)c1ccc(F)c(F)c1`
A) 95.7

Q) Could you please provide reported viability at 48 h, 25 µM for C=CC(=O)N1CCC(C(=O)NCC2COC3(CCCC3)O2)CC1 (centres unmarked) ? Thanks!
A) 73.4

Q) For the compound CC(Cl)C(=O)Nc1cc2c(cc1Cl)C(=O)c1ccccc1C2=O (centres unmarked) , report viability at 48 h, 25 µM.
A) 79.4

Q) Quick one: give measured viability at 48 h, 25 µM for `O=C(CCl)c1sccc1Cl`
A) 17

Q) Note down viability at 48 h, 25 µM recorded for C=CC(=O)NC1CCc2nc(CC)nn2C1 (centres unmarked)
A) 147

Q) Tell me viability at 48 h, 25 µM reported for `O=C(Nc1cc(F)ccc1F)N1CCSSCC1`
A) 94.9

Q) Identify viability at 48 h, 25 µM associated with the compound CC(Cl)C(=O)N1CCN(CC(F)(F)F)CC1C(C)C (centres unmarked)
A) 91.5

Q) Recall and state the measured viability at 48 h, 25 µM for Cc1cc(C(=O)CCl)c(C)n1C1CCS(=O)(=O)C1 (centres unmarked) .
A) 3.75

Q) Give a short answer stating reported viability at 48 h, 25 µM for `Cc1nc2cc(NC(=O)C(C#N)=Cc3ccco3)ccc2n1C` .
A) 106

Q) Give recorded viability at 48 h, 25 µM. `C=CC(=O)N(C)Cc1ncc(C(F)(F)F)n1C`
A) 70.6

Q) Complete the entry with viability at 48 h, 25 µM for `C=CC(=O)NCc1ccnc(OC2CCOCC2)c1`
A) 69.9

Q) Give viability at 48 h, 25 µM for the following compound: `Cc1cccc(C)c1NC(=O)C(C#N)=Cc1ccc(OC(F)F)cc1`
A) 56.3

Q) Input `N#CC(=Cc1cc2ccccc2o1)C(=O)NCc1ccco1` , output reported viability at 48 h, 25 µM.
A) 114

Q) Note down viability at 48 h, 25 µM recorded for O=C(CCl)NC(c1ccccc1)c1nccs1 (centres unmarked)
A) 2.38

Q) For the compound `CC(C)c1nc(C=C(C#N)C(=O)NC2CCCCC2)c2ccccn12` , give its reported viability at 48 h, 25 µM.
A) 103

Q) Note down viability at 48 h, 25 µM recorded for O=C(CCl)NC(c1ccccc1)c1ccc(Cl)cc1 (centres unmarked)
A) -0.0119

Q) Given the compound `Cc1cc(C(=O)CCl)c(C)s1` , write its reported viability at 48 h, 25 µM.
A) 0.769

Q) State its viability at 48 h, 25 µM for this compound: `CCc1ccc(NC(=O)C(C#N)=Cc2cccn2C)cc1`
A) 58.7

Q) Give reported viability at 48 h, 25 µM value for C=CC(=O)NCC1CS(=O)(=O)c2ccccc21 (centres unmarked)
A) 81.2

Data origin, for the record: paper PMC11995724
